# experimental target: HLA-A*0301 (human)
Some binders, each annotated with its measured binding affinity ratio (IC50 of standard peptide / IC50 of test peptide).
endpoint: binding affinity ratio (IC50 of standard peptide / IC50 of test peptide)

YSLNFMGY (modifications not checked) [YSLNFMGY (HBV POL 580)]; -0.0002
WLQFRNSK (modifications not checked) [WLQFRNSK (HBV POL 314)]; -0.0002
WIRTPPAY (modifications not checked) [WIRTPPAY (HBV NUC 125)]; -0.0002
YLVSFGVWIR (modifications not checked) [… (HBV NUC 118)]; 0.0005

Source of measurements: patent US20070059799A1
